Values from patent US8106055B2

target: human bradykinin 1 receptor (B1R) (Homo sapiens, UniProt P46663); construct: expressed in transfected cells; host or cells: CHO K1 cells; experiment: Functional investigation on the human bradykinin 1 receptor (B1R), Ca2+ FLIPR assay in CHO K1 hB1R cells; format: cell-based; details: B1R antagonism human; test substance 10 μM; Ca2+ FLIPR, CHO K1 hB1R cells
Sequence (P46663 whole entry): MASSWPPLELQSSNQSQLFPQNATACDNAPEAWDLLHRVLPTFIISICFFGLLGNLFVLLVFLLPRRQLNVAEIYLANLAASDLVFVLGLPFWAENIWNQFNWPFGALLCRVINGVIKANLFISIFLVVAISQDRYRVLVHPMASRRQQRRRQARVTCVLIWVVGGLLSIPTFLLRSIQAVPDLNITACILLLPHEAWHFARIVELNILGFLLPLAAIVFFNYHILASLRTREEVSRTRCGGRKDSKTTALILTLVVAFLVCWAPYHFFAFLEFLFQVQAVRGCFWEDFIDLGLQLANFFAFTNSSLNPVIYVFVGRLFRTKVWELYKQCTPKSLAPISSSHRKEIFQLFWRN
Reported B1R Ant. h [10 μM] % Inhibition values for a set of compounds
Note: unit % is implicit; provide only the numeric part.

Use the examples below as a reference point.
{"COMPOUND": "COc1cc(C)c(S(=O)(=O)N2CCC(OCC(=O)NCC3CCC(C(CCc4ccccc4)N(C)C)CC3)C2)c(C)c1C (stereo not shown) [Example 503]", "TESTED TARGET": "human bradykinin 1 receptor (B1R) (Homo sapiens, UniProt P46663)", "UOM": "%", "B1R Ant. h [10 μM] % Inhibition": 105}
{"COMPOUND": "COc1cc(C)c(S(=O)(=O)N2CCC(OCC(=O)NCC3CCC(C(c4cccc(F)c4)N(C)C)CC3)CC2)c(C)c1C (stereo not shown) [Example 287]", "TESTED TARGET": "human bradykinin 1 receptor (B1R) (Homo sapiens, UniProt P46663)", "UOM": "%", "B1R Ant. h [10 μM] % Inhibition": 1}
{"COMPOUND": "COc1ccc(S(=O)(=O)N(C)CCOCC(=O)NC2CCC(C(c3ccccc3)N(C)C)CC2)cc1OC (stereo not shown) [Example 592]", "TESTED TARGET": "human bradykinin 1 receptor (B1R) (Homo sapiens, UniProt P46663)", "UOM": "%", "B1R Ant. h [10 μM] % Inhibition": 1}

Reported B1R Ant. h [10 μM] % Inhibition of CN(C)C(c1ccc(Cl)cc1)C1CCC(CNC(=O)COCC2CCCN(S(=O)(=O)c3ccccc3)C2)CC1 (stereo not shown) [Example 294] : −3

---

target: bradykinin 1 receptor (B1R) of the rat (Rattus norvegicus, UniProt P97583); construct: expressed in transfected cells; host or cells: CHO K1 cells; experiment: Functional investigation on the rat bradykinin 1 receptor (B1R), Ca2+ FLIPR assay in CHO K1 rB1R cells; assay type: cell-based; settings: B1R antagonism rat; test substance 10 μM; Ca2+ FLIPR, CHO K1 rB1R cells
Sequence (P97583 whole entry): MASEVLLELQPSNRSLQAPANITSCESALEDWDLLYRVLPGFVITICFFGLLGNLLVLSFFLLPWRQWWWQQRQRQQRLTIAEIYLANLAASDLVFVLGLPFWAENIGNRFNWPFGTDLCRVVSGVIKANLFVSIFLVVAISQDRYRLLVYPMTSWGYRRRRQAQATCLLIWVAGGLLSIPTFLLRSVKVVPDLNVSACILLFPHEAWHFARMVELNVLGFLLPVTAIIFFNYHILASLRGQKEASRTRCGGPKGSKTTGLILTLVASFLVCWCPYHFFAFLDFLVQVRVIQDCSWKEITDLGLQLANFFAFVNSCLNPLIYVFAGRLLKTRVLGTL
QUANTITY NAME: B1R Ant. r [10 μM] % Inhibition (%)
A number alone suffices; assume %.

Solved cases (5 shown):
{"MOLECULE": "COc1cc(C)c(S(=O)(=O)N2CCC(OCC(=O)NCCC3CCC(C(c4cccc(F)c4)N(C)C)CC3)C2)c(C)c1 (stereo not shown)", "QUANTITY NAME": "B1R Ant. r [10 μM] % Inhibition", "UOM": "%", "MEASUREMENT": 94}
{"MOLECULE": "Cc1ccc(S(=O)(=O)N2CCC(OCC(=O)NCC3CCC(C(CCc4ccccc4)N(C)C)CC3)C2)cc1 (stereo not shown)", "QUANTITY NAME": "B1R Ant. r [10 μM] % Inhibition", "UOM": "%", "MEASUREMENT": 5}
{"MOLECULE": "COc1ccc(S(=O)(=O)N2CCCCC2COCC(=O)NCCC2CCC(C(c3cccc(F)c3)N(C)C)CC2)c(OC)c1 (stereo not shown)", "QUANTITY NAME": "B1R Ant. r [10 μM] % Inhibition", "UOM": "%", "MEASUREMENT": 18}
{"MOLECULE": "CN(C)C(c1ccc(F)cc1)C1CCC(CCNC(=O)COCCN(C)S(=O)(=O)c2ccc(F)cc2)CC1 (stereo not shown)", "QUANTITY NAME": "B1R Ant. r [10 μM] % Inhibition", "UOM": "%", "MEASUREMENT": 9}
{"MOLECULE": "CN(C)C(c1cccs1)C1CCC(NC(=O)COCCN(C)S(=O)(=O)c2ccc(OC(F)(F)F)cc2)CC1 (stereo not shown)", "QUANTITY NAME": "B1R Ant. r [10 μM] % Inhibition", "UOM": "%", "MEASUREMENT": 20}

Please fill in: B1R Ant. r [10 μM] % Inhibition reported for COc1ccc(S(=O)(=O)N(C)CCOCC(=O)NCC2CCC(C(c3cccc(F)c3)N(C)C)CC2)cc1 (stereo not shown) = 23

Briefly, B1R Ant. r [10 μM] % Inhibition measured for COc1ccc(S(=O)(=O)N2CCCC2COCC(=O)NCC2CCC(C(CCc3ccccc3)N(C)C)CC2)cc1 (stereo not shown) : 62

Input CN(C)C(c1cccc(F)c1)C1CCC(CCNC(=O)COC2CCN(S(=O)(=O)c3ccc(F)cc3)C2)CC1 (stereo not shown) . Output B1R Ant. r [10 μM] % Inhibition: 10

The molecule listed as CN(C)C(c1ccccc1)C1CCC(CNC(=O)COCC2CCCN(S(=O)(=O)c3ccccc3)C2)CC1 (stereo not shown) shows B1R Ant. r [10 μM] % Inhibition equal to 0

Sample COc1cc(C)c(S(=O)(=O)N2CCC(OCC(=O)NCC3CCC(C(c4ccc(F)cc4)N(C)C)CC3)C2)c(C)c1C (stereo not shown) ; B1R Ant. r [10 μM] % Inhibition observed: 8

Recorded B1R Ant. r [10 μM] % Inhibition (molecule Cc1ccc(S(=O)(=O)N2CCC(OCC(=O)NCCC3CCC(C(c4cccs4)N(C)C)CC3)C2)cc1 (stereo not shown) ): 32

Lookup result for CN(C)C(c1cccc(F)c1)C1CCC(CCNC(=O)COCC2CCCN2S(=O)(=O)c2ccc(Cl)c(Cl)c2)CC1 (stereo not shown) ; measured B1R Ant. r [10 μM] % Inhibition: −15

response.value for CN(C)C(c1ccc(Cl)cc1)C1CCC(CNC(=O)COCCN(C)S(=O)(=O)c2ccc(OC(F)(F)F)cc2)CC1 (stereo not shown) (field: B1R Ant. r [10 μM] % Inhibition) = 3

---

Property: inhibition at 10 µM; scope: individual molecules
target: serotonin (5-HT) reuptake (Rattus norvegicus, UniProt P31652); construct: synaptosomes are freshly isolated from areas of the rat brain; from tissue; host or cells: rat brain synaptosomes (P2 fraction); experiment: Inhibition of serotonin (5HT) reuptake in synaptosomes from rat brain; assay type: biochemical; conditions: test concentration of 10 μM; read-out: 5-HT (inhibition of reuptake of serotonin, % inhibition)
Sequence (P31652 whole entry): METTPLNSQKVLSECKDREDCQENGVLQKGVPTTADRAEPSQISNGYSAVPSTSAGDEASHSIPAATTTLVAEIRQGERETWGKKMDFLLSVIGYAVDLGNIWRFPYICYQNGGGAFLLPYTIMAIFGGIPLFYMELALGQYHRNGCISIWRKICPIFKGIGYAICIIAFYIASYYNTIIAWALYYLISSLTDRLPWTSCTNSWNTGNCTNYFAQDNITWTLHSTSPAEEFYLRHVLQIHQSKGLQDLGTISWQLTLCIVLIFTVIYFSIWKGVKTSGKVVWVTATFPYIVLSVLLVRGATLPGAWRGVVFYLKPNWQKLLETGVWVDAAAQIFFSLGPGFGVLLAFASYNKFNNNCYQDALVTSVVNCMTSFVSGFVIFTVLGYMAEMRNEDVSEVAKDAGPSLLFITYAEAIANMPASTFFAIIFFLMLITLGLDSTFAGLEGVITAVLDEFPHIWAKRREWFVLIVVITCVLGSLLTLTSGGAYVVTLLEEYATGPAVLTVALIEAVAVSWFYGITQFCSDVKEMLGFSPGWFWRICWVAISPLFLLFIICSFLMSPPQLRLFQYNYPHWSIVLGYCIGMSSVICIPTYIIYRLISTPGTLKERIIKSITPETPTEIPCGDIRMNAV
Please state the figure in %; there is no need to write the unit.

{"MOLECULE": "Cc1cc(C)c(S(=O)(=O)N2CCC(OCC(=O)NCCC3CCC(C(c4cccs4)N(C)C)CC3)C2)c(C)c1 (stereo not drawn)", "TESTED TARGET": "serotonin (5-HT) reuptake (Rattus norvegicus, UniProt P31652)", "QUANTITY NAME": "inhibition at 10 µM", "UOM": "%", "MEASUREMENT": 79}
{"MOLECULE": "COc1cc(C)c(S(=O)(=O)N2CCC(OCC(=O)NCCC3CCC(C(c4cccs4)N(C)C)CC3)C2)c(C)c1 (stereo not drawn)", "TESTED TARGET": "serotonin (5-HT) reuptake (Rattus norvegicus, UniProt P31652)", "QUANTITY NAME": "inhibition at 10 µM", "UOM": "%", "MEASUREMENT": 96}

// inhibition at 10 µM value for CN(C)C(c1cccc(F)c1)C1CCC(CNC(=O)COCCN(C)S(=O)(=O)c2c(Cl)cccc2Cl)CC1 (stereo not drawn) : 84

---

molecular target: bradykinin 1 receptor (B1R) of the rat (Rattus norvegicus); construct: expressed in transfected cells; host or cells: CHO K1 cells; experiment: Functional investigation on the rat bradykinin 1 receptor (B1R), Ca2+ FLIPR assay in CHO K1 rB1R cells; format: cell-based; settings: CHO-K1, B1R antagonism rat; test substance 10 μM; Ca2+ FLIPR, CHO K1 rB1R cells; read-out: B1R Ant. r [10 μM] % Inhibition
Short version: inhibition at 10 µM at least 40% is condition met, less is condition not met.

{"COMPOUND": "COc1cc(C)c(S(=O)(=O)N2CCC(OCC(=O)NC3CCC(C(c4cccs4)N(C)C)CC3)C2)c(C)c1 (stereo not shown)", "CLASS LABEL": "condition met"}
{"COMPOUND": "COc1ccc(S(=O)(=O)N2CCC(OCC(=O)NCCC3CCC(C(c4cccs4)N(C)C)CC3)C2)cc1OC (stereo not shown)", "CLASS LABEL": "condition not met"}
{"COMPOUND": "COc1cc(C)c(S(=O)(=O)N2CCC(OCC(=O)NCC3CCC(C(c4ccccc4)N4CCOCC4)CC3)C2)c(C)c1 (stereo not shown)", "CLASS LABEL": "condition met"}
{"COMPOUND": "CN(C)C(c1cccs1)C1CCC(CCNC(=O)COC2CCN(S(=O)(=O)c3ccc(Cl)cc3)C2)CC1 (stereo not shown)", "CLASS LABEL": "condition not met"}
{"COMPOUND": "COc1cc(C)c(S(=O)(=O)N2CCCC(COCC(=O)NC3CCC(C(c4ccccc4)N4CCN(C)CC4)CC3)C2)c(C)c1 (stereo not shown)", "CLASS LABEL": "condition met"}
{"COMPOUND": "CN(CCOCC(=O)NC1CCC(C(CCc2ccccc2)N2CCOCC2)CC1)S(=O)(=O)c1c(Cl)cccc1Cl (stereo not shown)", "CLASS LABEL": "condition not met"}
{"COMPOUND": "CN(CCOCC(=O)NCC1CCC(C(CCc2ccccc2)N2CCCC2)CC1)S(=O)(=O)c1c(Cl)cccc1Cl (stereo not shown)", "CLASS LABEL": "condition met"}
{"COMPOUND": "CN(C)C(c1ccccc1)C1CCC(NC(=O)COCCN(C)S(=O)(=O)c2c(Cl)cccc2Cl)CC1 (stereo not shown)", "CLASS LABEL": "condition not met"}

# evaluate next
Can CN(C)C(c1ccccc1)C1CCC(CNC(=O)COCCN(Cc2ccccc2)S(=O)(=O)c2ccccc2)CC1 (stereo not shown) be said to have inhibition at 10 µM at or above 40%? condition not met
